biological target: UniProt Q7ZJM1; test: Inhibition of recombinant HIV1 integrase 3'-end processing activity by gel-based assay in presence of magnesium
Sequence (Q7ZJM1 whole entry): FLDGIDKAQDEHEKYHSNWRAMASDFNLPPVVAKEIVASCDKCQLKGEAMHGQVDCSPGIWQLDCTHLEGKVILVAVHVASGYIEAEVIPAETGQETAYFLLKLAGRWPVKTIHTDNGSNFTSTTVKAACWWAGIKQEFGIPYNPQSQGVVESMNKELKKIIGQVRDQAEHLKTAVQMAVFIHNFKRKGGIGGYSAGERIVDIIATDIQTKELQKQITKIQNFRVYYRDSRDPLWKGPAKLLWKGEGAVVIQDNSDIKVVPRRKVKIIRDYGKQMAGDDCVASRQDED
Quantity: IC50 (µM)
Numbers only, in µM.

O=C(O)/C(O)=C/C(=O)c1cn(Cc2ccc(F)cc2)c2c(F)cccc2c1=O = 16
O=C(O)/C(O)=C/C(=O)c1cn(Cc2ccc(F)cc2)c2cc(Cl)ccc2c1=O = 4

// next item, IC50 requested
Query: Kindly state the measured IC50 obtained for `O=C(O)/C(O)=C/C(=O)c1cn(Cc2ccc(F)cc2)c2ccccc2c1=O` with UniProt Q7ZJM1.
Result: 14
